- Test system: galium (catchweed bedstraw, Galium aparine)
- test_name: Test B postemergence plant response
- Format: in vivo
- condition_set: 125 g ai/ha, postemergence; 0 to 100 scale, 0 no effect, 100 complete control
quantity: Plant response rating, Galium
I'd appreciate a reply containing only the number, no unit.

Q: Which Plant response rating, Galium value is on record for N#Cc1ccnc(-c2ccccc2Oc2ncc(Cl)cn2)c1 ?
Ans: 50

Q: And then Cn1ncnc1-c1ccccc1Oc1ncc(Cl)cn1 , what is it?
Ans: 0

Q: And then CC(C)n1ncnc1-c1ccccc1Oc1ncc(Cl)cn1 , what is it?
Ans: 0

Q: And then Clc1cnc(Oc2ccccc2-c2cocn2)nc1 , what is it?
Ans: 10

Q: And then Clc1cnc(Oc2ccccc2-c2nnc(C3CC3)o2)nc1 , what is it?
Ans: 20

Q: And then CC(=O)c1cc(-c2ccccc2Oc2ncc(Cl)cn2)no1 , what is it?
Ans: 20

Q: And then CC(=O)c1cc(-c2ccccc2Oc2ncc(Br)cn2)no1 , what is it?
Ans: 10

Q: And then Cn1cc(-c2ccccc2Oc2ncc(Cl)cn2)nn1 , what is it?
Ans: 60

Q: And then CC(C)(F)c1cc(-c2ccccc2Oc2ncc(Cl)cn2)no1 , what is it?
Ans: 100

Q: And then Clc1cnc(Oc2ccccc2-c2ccno2)nc1 , what is it?
Ans: 0

Q: And then Cn1nnnc1-c1ccccc1Oc1ncc(Cl)cn1 , what is it?
Ans: 30

Q: And then FC(F)c1cc(-c2c(Cl)cccc2Oc2ncc(Cl)cn2)on1 , what is it?
Ans: 100

Q: And then FC(F)c1cc(-c2c(Cl)cccc2Oc2ncc(Br)cn2)on1 , what is it?
Ans: 100

Q: And then COc1ccnc(-c2ccccc2Oc2ncc(Cl)cn2)c1 , what is it?
Ans: 30

Q: And then Cc1cc(-c2c(F)cccc2Oc2ncc(Br)cn2)on1 , what is it?
Ans: 100

Q: And then Fc1ccnc(-c2ccccc2Oc2ncc(Cl)cn2)c1 , what is it?
Ans: 40

Q: And then FC(F)c1cc(-c2c(Cl)cccc2Oc2ncc(Cl)cn2)no1 , what is it?
Ans: 100

Q: And then FC(F)(F)c1csc(-c2ccccc2Oc2ncc(Cl)cn2)n1 , what is it?
Ans: 0

Q: And then Clc1cnc(Oc2ccccc2-c2cnccn2)nc1 , what is it?
Ans: 30

Q: And then CCn1nc(C(F)(F)F)cc1-c1c(C#N)cccc1Oc1ncc(Cl)cn1 , what is it?
Ans: 50

###

- System: kochia (Kochia scoparia)
- test_name: Test B pre-/postemergence plant response
- Type: in vivo
- condition_set: 31 g ai/ha, Preemergence; 0 to 100 scale where 0 is no effect and 100 is complete control
quantity: Plant response rating, Kochia
I'd appreciate a reply containing only the number, no unit.

Q: Which Plant response rating, Kochia value is on record for N#Cc1cc(-c2ccccc2Oc2ncc(Cl)cn2)on1 [Compound 223] ?
Ans: 0

Q: And then CC(=O)c1cc(-c2ccccc2Oc2ncc(Br)cn2)no1 [Compound 150] , what is it?
Ans: 0

Q: And then COc1ccnc(-c2ccccc2Oc2ncc(Cl)cn2)c1 [Compound 219] , what is it?
Ans: 0

Q: And then Cn1nc(-c2c(Br)cccc2Oc2ncc(Cl)cn2)cc1C(F)(F)F [Compound 147] , what is it?
Ans: 0

Q: And then Cc1csc(-c2ccccc2Oc2ncc(Cl)cn2)c1 [Compound 216] , what is it?
Ans: 0

Q: And then FC(F)(F)COCc1cc(-c2ccccc2Oc2ncc(Br)cn2)on1 [Compound 129] , what is it?
Ans: 0

Q: And then Cc1ccnc(-c2ccccc2Oc2ncc(Cl)cn2)c1 [Compound 187] , what is it?
Ans: 0

Q: And then Clc1cnc(Oc2ccccc2-c2cnccn2)nc1 [Compound 163] , what is it?
Ans: 0

Q: And then Fc1cccc(Oc2ncc(Br)cn2)c1-c1cc(C(F)F)on1 [Compound 118] , what is it?
Ans: 80

Q: And then FC(F)(F)COCc1cc(-c2ccccc2Oc2ncc(Cl)cn2)on1 [Compound 128] , what is it?
Ans: 0

Q: And then FC(F)(F)COc1cc(-c2ccccc2Oc2ncc(Cl)cn2)on1 [Compound 176] , what is it?
Ans: 0

Q: And then FC(F)Oc1cccc(Oc2ncc(Cl)cn2)c1-c1cc(C(F)F)no1 [Compound 132] , what is it?
Ans: 0

Q: And then FC(F)c1cc(-c2c(Cl)cccc2Oc2ncc(Cl)cn2)on1 [Compound 120] , what is it?
Ans: 80

Q: And then Fc1ccc(-c2cc(C(F)(F)F)no2)c(Oc2ncc(Cl)cn2)c1 [Compound 124] , what is it?
Ans: 10

Q: And then C=C(C)c1cc(-c2ccccc2Oc2ncc(Cl)cn2)on1 [Compound 196] , what is it?
Ans: 0

Q: And then CC(=O)c1cc(-c2ccccc2Oc2ncc(Cl)cn2)on1 [Compound 218] , what is it?
Ans: 0

Q: And then CC(F)(F)c1cc(-c2ccccc2Oc2ncc(Br)cn2)no1 [Compound 149] , what is it?
Ans: 20

Q: And then CCOC(OCC)c1cc(-c2ccccc2Oc2ncc(Cl)cn2)on1 [Compound 108] , what is it?
Ans: 0

Q: And then Clc1cnc(Oc2ccccc2-c2ccno2)nc1 [Compound 154] , what is it?
Ans: 0

Q: And then Clc1cnc(Oc2ccccc2-c2cc(Cl)cnn2)nc1 [Compound 189] , what is it?
Ans: 0

Q: And then Clc1cnc(Oc2ccccc2-c2cocn2)nc1 [Compound 214] , what is it?
Ans: 0

Q: And then Fc1cccc(Oc2ncc(Cl)cn2)c1-c1cc(C(F)F)no1 [Compound 144] , what is it?
Ans: 90

Q: And then Fc1cccc(Oc2ncc(Cl)cn2)c1-c1cnccn1 [Compound 165] , what is it?
Ans: 0

Q: And then O=Cc1cc(-c2ccccc2Oc2ncc(Cl)cn2)co1 [Compound 140] , what is it?
Ans: 0

Q: And then Brc1cnc(Oc2ccccc2-c2ccno2)nc1 [Compound 155] , what is it?
Ans: 0

###

Give measured Plant response rating, Barnyardgrass for each item. Keep answers brief.
- Tested on: barnyardgrass (Echinochloa crus-galli)
- test_name: Test B pre-/postemergence plant response
- Format: in vivo
- condition_set: Postemergence, 31 g ai/ha; 0 to 100 scale (0 no effect, 100 complete control)
- From the text: […]
I'd appreciate a reply containing only the number, no unit.

Q: Which Plant response rating, Barnyardgrass value is on record for FC(F)c1ccc(-c2ccccc2Oc2ncc(Cl)cn2)o1 ?
Ans: 0

Q: And then Fc1ccnc(-c2ccccc2Oc2ncc(Cl)cn2)c1 , what is it?
Ans: 0

Q: And then Fc1cnc(Oc2cccc(F)c2-c2cnccn2)nc1 , what is it?
Ans: 0

Q: And then FC(Cl)(Cl)c1cc(-c2ccccc2Oc2ncc(Cl)cn2)no1 , what is it?
Ans: 10

Q: And then Clc1cnc(Oc2ccccc2-c2cc(Cl)cnn2)nc1 , what is it?
Ans: 0

Q: And then Fc1ccc(Oc2ncc(Cl)cn2)c(-c2cc(C(F)(Cl)Cl)on2)c1 , what is it?
Ans: 10

###

- System: corn (Zea mays)
- test_name: Test B pre-/postemergence plant response
- Format: in vivo
- condition_set: 31 g ai/ha, Postemergence; 0 to 100 scale, 0 no effect, 100 complete control
- Description: […]
Give measured Plant response rating, Corn for each item. Keep answers brief.
I'd appreciate a reply containing only the number, no unit.

Q: Param readout= Plant response rating, Corn; system= corn (Zea mays); entry= COc1cccc(Oc2ncc(Cl)cn2)c1-c1cc(C(F)F)on1 ; returns value.
Ans: 10

Q: And then COc1cccc(Oc2ncc(Cl)cn2)c1-c1cc(C(F)(F)F)no1 , what is it?
Ans: 10

Q: And then FC(F)(F)COCc1cc(-c2ccccc2Oc2ncc(Cl)cn2)on1 , what is it?
Ans: 0

Q: And then Clc1cnc(Oc2ccccc2-c2nnc(C3CC3)o2)nc1 , what is it?
Ans: 0

Q: And then Fc1ccc(-c2cc(C(F)(F)F)no2)c(Oc2ncc(Br)cn2)c1 , what is it?
Ans: 0

###

- Tested on: blackgrass (Alopecurus myosuroides)
- test_name: Test B postemergence plant response
- Format: in vivo
- condition_set: Postemergence, 31 g ai/ha; 0 to 100 scale (0 no effect, 100 complete control)
quantity: Plant response rating, Blackgrass
I'd appreciate a reply containing only the number, no unit.

Q: Which Plant response rating, Blackgrass value is on record for Cc1cnc(Oc2ccccc2-c2cc(C(C)(F)F)on2)nc1 [Compound 173] ?
Ans: 30

Q: And then Fc1cnc(Oc2ccccc2-c2cnccn2)nc1 [Compound 164] , what is it?
Ans: 0

Q: And then CCOC(=O)c1cc(-c2ccccc2Oc2ncc(Cl)cn2)on1 [Compound 225] , what is it?
Ans: 0

Q: And then FC(F)(Br)c1cc(-c2ccccc2Oc2ncc(Cl)cn2)no1 [Compound 162] , what is it?
Ans: 30

Q: And then N#Cc1cc(-c2ccccc2Oc2ncc(Cl)cn2)on1 [Compound 223] , what is it?
Ans: 0

Q: And then CC(F)(F)c1cc(-c2ccccc2Oc2ncc(Cl)cn2)no1 [Compound 220] , what is it?
Ans: 60

Q: And then Brc1cnc(Oc2ccccc2-c2ccno2)nc1 [Compound 155] , what is it?
Ans: 0

Q: And then COc1ccnc(-c2ccccc2Oc2ncc(Cl)cn2)c1 [Compound 219] , what is it?
Ans: 0

Q: And then Fc1cccc(Oc2ncc(Cl)cn2)c1-c1cnccn1 [Compound 165] , what is it?
Ans: 20

Q: And then Clc1cnc(Oc2ccccc2-c2cnccn2)nc1 [Compound 163] , what is it?
Ans: 20
